Experiment: Plasma clearance in dog at 0.1 mg/kg, iv and 3 mg/kg, po
Assay type: ADME, organism-based, Canis lupus familiaris
Readout: clearance (mL/min/kg)
Report the value in mL/min/kg with no unit label.

// Input: Nc1[nH]ncc1-c1cc(Cl)ccc1Oc1cc(F)c(S(=O)(=O)Nc2cscn2)cc1Cl . Output its clearance only. 4.8

* * *

pIC50: −log10 of the molar value.
Provide the reported pIC50 of each item.

Report pIC50 under test system Cytochrome P450 2D6 (Homo sapiens) for N#Cc1ccc(Oc2ccc(S(=O)(=O)Nc3ccc(F)cn3)cc2C#N)cc1Cl . < 4.52

Report pIC50 under test system Cytochrome P450 2D6 (Homo sapiens) for N#Cc1cc(S(=O)(=O)Nc2ccc(F)cn2)ccc1Oc1ccc(CO)c(Cl)c1 . < 4.52

* * *

Provide the reported IC50 of each item.
Target: Cytochrome P450 2C19 (Homo sapiens)
Sequence (P33261 whole entry): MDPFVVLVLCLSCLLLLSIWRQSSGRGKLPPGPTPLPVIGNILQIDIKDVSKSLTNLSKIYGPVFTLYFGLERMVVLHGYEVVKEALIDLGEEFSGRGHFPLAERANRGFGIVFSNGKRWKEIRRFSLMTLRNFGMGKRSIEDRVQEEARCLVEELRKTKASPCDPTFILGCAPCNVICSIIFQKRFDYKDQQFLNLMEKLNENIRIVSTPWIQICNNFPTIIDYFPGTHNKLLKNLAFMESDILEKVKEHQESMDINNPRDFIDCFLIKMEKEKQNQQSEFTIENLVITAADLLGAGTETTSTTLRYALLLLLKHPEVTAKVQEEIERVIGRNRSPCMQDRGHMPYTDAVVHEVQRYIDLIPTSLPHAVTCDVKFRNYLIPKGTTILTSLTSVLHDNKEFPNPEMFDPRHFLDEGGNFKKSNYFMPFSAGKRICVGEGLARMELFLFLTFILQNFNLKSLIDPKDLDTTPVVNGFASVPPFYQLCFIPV
Report the value in µM with no unit label.

// Input: N#Cc1cc(S(=O)(=O)Nc2ccc(F)cn2)ccc1Oc1ccc(CO)c(Cl)c1 . Output its IC50 only. 17.5

// Input: N#Cc1ccc(Oc2ccc(S(=O)(=O)Nc3ccc(F)cn3)cc2C#N)cc1Cl . Output its IC50 only. 17.2

* * *

Assay: Fraction unbound in dog plasma
Format: ADME, cell-free, Canis lupus familiaris
Provide the reported fraction unbound of each item.
Answer as a number with no unit attached.

// Input: N#Cc1cc(S(=O)(=O)Nc2ccc(F)cn2)ccc1Oc1ccc(CO)c(Cl)c1 . Output its fraction unbound only. 0.014

// Input: N#Cc1ccc(Oc2ccc(S(=O)(=O)Nc3ccc(F)cn3)cc2C#N)cc1Cl . Output its fraction unbound only. 0.0041

* * *

Target: Sodium channel protein type 9 subunit alpha (Homo sapiens, UniProt Q15858)
Sequence (Q15858 whole entry): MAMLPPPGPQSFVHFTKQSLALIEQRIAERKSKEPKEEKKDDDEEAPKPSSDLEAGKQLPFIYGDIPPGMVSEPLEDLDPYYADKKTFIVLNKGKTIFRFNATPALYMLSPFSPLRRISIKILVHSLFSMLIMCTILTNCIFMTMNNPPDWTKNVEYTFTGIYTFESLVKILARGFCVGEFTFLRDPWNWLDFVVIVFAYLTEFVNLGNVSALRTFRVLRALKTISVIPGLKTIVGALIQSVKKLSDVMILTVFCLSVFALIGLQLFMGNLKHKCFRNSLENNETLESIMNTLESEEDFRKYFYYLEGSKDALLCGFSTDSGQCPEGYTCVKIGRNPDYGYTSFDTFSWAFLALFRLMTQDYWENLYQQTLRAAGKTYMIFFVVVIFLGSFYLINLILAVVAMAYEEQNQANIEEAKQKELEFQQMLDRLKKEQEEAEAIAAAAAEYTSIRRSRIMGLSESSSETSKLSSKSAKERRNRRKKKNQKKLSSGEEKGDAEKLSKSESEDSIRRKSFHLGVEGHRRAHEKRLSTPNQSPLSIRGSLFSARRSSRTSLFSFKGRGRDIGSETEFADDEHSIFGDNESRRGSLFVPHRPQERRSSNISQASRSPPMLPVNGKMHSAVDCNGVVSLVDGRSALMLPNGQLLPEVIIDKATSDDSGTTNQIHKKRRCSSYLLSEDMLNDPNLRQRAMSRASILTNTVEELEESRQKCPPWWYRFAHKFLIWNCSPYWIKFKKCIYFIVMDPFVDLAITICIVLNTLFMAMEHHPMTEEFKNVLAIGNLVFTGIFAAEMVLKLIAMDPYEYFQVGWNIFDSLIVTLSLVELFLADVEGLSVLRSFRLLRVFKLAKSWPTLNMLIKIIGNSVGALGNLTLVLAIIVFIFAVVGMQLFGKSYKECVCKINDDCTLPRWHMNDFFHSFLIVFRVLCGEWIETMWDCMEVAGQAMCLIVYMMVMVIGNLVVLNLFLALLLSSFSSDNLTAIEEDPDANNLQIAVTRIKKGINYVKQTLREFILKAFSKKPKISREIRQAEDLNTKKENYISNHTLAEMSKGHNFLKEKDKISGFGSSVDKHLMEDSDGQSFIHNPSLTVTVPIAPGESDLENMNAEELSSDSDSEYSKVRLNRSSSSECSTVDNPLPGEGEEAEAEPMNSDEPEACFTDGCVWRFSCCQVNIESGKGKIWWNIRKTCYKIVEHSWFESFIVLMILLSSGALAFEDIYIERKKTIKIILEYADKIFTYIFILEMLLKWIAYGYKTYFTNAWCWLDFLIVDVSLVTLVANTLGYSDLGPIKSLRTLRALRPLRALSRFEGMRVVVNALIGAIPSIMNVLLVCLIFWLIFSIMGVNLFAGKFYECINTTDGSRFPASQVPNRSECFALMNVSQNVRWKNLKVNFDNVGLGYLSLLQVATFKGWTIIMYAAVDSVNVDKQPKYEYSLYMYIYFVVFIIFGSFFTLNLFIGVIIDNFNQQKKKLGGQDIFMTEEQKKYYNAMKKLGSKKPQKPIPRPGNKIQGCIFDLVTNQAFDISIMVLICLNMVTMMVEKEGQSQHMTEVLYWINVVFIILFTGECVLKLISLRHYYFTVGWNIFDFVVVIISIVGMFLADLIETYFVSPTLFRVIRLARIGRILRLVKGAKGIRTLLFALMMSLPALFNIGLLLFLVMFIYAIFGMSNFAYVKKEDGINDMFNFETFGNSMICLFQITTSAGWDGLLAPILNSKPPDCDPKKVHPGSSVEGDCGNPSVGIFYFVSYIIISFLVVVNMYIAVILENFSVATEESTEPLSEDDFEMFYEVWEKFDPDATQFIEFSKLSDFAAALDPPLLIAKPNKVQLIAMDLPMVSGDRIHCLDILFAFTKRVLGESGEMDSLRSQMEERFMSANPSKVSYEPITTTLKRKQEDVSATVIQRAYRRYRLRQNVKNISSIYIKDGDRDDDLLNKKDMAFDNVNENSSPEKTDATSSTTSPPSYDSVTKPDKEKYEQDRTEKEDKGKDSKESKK
Assay: Inhibition of NaV1.7 (unknown origin) by electrophysiology assay
Readout: IC50

// Input: N#Cc1cc(S(=O)(=O)Nc2ccc(F)cn2)ccc1Oc1ccc(CO)c(Cl)c1 . Output its IC50 only. > 30 µM

// Input: N#Cc1ccc(Oc2ccc(S(=O)(=O)Nc3ccc(F)cn3)cc2C#N)cc1Cl . Output its IC50 only. > 30 µM

* * *

Test: Oral bioavailability in dog at 3 mg/kg
Type: ADME, organism-based, Canis lupus familiaris
Details: in vivo
Readout: bioavailability (%)
Report the value in % with no unit label.

// Input: Nc1[nH]ncc1-c1cc(Cl)ccc1Oc1cc(F)c(S(=O)(=O)Nc2cscn2)cc1Cl . Output its bioavailability only. 35

* * *

Test: Fraction unbound in human plasma
Format: ADME, cell-free
Readout: fraction unbound
Answer as a number with no unit attached.

// Input: N#Cc1ccc(Oc2ccc(S(=O)(=O)Nc3ccc(F)cn3)cc2C#N)cc1Cl . Output its fraction unbound only. 0.0012

// Input: N#Cc1cc(S(=O)(=O)Nc2ccc(F)cn2)ccc1Oc1ccc(CO)c(Cl)c1 . Output its fraction unbound only. 0.0083

* * *

Assay: Plasma clearance in rat at 0.5 mg/kg, iv and 1 mg/kg, po
Assay type: ADME, organism-based
Provide the reported clearance of each item.
Report the value in mL/min/kg with no unit label.

// Input: N#Cc1cc(S(=O)(=O)Nc2ccc(F)cn2)ccc1Oc1ccc(CO)c(Cl)c1 . Output its clearance only. 1.3

// Input: N#Cc1ccc(Oc2ccc(S(=O)(=O)Nc3ccc(F)cn3)cc2C#N)cc1Cl . Output its clearance only. 0.39

Origin of measurements: ChEMBL document CHEMBL3853264
